Tested on: FasL
Method summary: FasL expression at the cell surface by flow cytometry, PBMCs
Format: cell-based, human
Test parameters: 100 μg/ml sequence, 48 h, treated vs control cells
Recorded % INCREASE FasL for the following sequences
Please reply with the bare figure in % and do not write the unit itself.

INSERT INTO results (record_sequence, target_of_assay, endpoint, recorded_result) VALUES
  ('GTGTGT [SEQ ID NO:2]', 'FasL', '% INCREASE FasL', 99),
  ('CCGTCC [SEQ ID NO:8]', 'FasL', '% INCREASE FasL', 1147),
  ('GGGCGG [SEQ ID NO:18]', 'FasL', '% INCREASE FasL', 850),
  ('GGTGGG [SEQ ID NO:4]', 'FasL', '% INCREASE FasL', 59),
  ('TTGTTT [SEQ ID NO:6]', 'FasL', '% INCREASE FasL', 441),
  ('GGGAGG [SEQ ID NO:17]', 'FasL', '% INCREASE FasL', 356);

Provide only the value of recorded % INCREASE FasL for AAGTAA [SEQ ID NO:7]
−26

Provide only the value of recorded % INCREASE FasL for TGGTTG [SEQ ID NO:9]
1322

Provide only the value of recorded % INCREASE FasL for GGGGGG [SEQ ID NO:16]
42

Provide only the value of recorded % INCREASE FasL for TTTGTT [SEQ ID NO:3]
1528
